METHOD_DESCRIPTION: chemical genetic growth profiling, strain panel (AID 1159580);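 also: tested at 20 µM; growth read once vehicle control cultures reached saturation at 30 °C; 1 = growth at the plate median or of vehicle wells; lower values mean less growth of the strain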
MEASUREMENT_CONDITIONS: S. cerevisiae deletion strains, growth OD, locus YIL073C, strain SPO22, hits give low values
Out of some 5,500 compounds screened, about 2,000 (36%) were called active. Roughly 18% stayed inconclusive and do not appear here. Some of the results follow.
Threshold 1: normalized growth strictly smaller gives class 1, otherwise class 0.

MOLECULE	ASSIGNED_CLASS
NC(N)=NCCCCN=C(N)N	class 0
COc1cc(OC)c2c(=O)cc(-c3ccccc3)oc2c1	class 1
Cc1nnc(NS(=O)(=O)c2ccc(N)cc2)s1	class 0
CN1CCC[C@@H]1CCO[C@](C)(c1ccccc1)c1ccc(Cl)cc1	class 1
COc1cc(C)c2c(=O)cc(-c3ccccc3)oc2c1	class 1
COc1ccc(CCC(=O)c2c(O)cc(O[C@@H]3O[C@H](CO)C(O)[C@H](O)C3O[C@@H]3O[C@@H](C)[C@H](O)[C@@H](O)[C@H]3O)cc2O)cc1O (stereo not given in full)	class 1
NCCCCNCCCN	class 1
COC(=O)[C@@H]1OC(=O)C2OC23[C@@]1(C)CCC1[C@]2(C)C(C[C@@H](O)[C@]13C)C(C)(C)[C@H](OC(C)=O)C[C@@H]2OC(C)=O (stereo not given in full)	class 0

---

Measured normalized growth by item
METHOD_DESCRIPTION: chemical genetic growth profiling, strain panel (AID 1159580)
MEASUREMENT_CONDITIONS: S. cerevisiae deletion strains, growth OD, locus YCL069W, strain vba3, hits give low values
Out of some 5,500 compounds screened, about 2,000 (36%) were called active. About 18% were inconclusive and are not listed. The list shows a part of the results.

COMPOUND	normalized growth
COP(=S)(OC)Oc1ccc([N+](=O)[O-])cc1	0.996
COc1cc(C)c2c(=O)cc(-c3ccccc3)oc2c1	0.939
CC[C@@H]1OC(=O)C[C@@H](O)[C@H](C)[C@@H](O[C@@H]2O[C@H](C)[C@@H](O)[C@H](N(C)C)[C@H]2O)[C@@H](CCN2C[C@H](C)C[C@H](C)C2)C[C@@H](C)C(=O)/C=C/C(C)=C\[C@@H]1CO[C@@H]1O[C@H](C)[C@@H](O)[C@@H](OC)[C@H]1OC	1.02
NC(C(=O)O)C(O)C(=O)O (stereo unspecified)	0.991
Cc1cccc(C)c1NC(=O)C1CCCCN1C (stereo unspecified)	0.983
N[C@@H](C(=O)O)[C@@H](O)[C@H](O)[C@H](O)CO	1.03
NCCCNCCSP(=O)(O)O	0.994
CC(C)/C(O)=C1/C(=O)O[C@@H](c2ccoc2)[C@]2(C)C(O)[C@@H](O)[C@@]34OC5(C)OC67CC(C)(C(O)[C@]6(O)[C@@H](O)[C@]3(O5)C12)[C@H](CC(=O)O)[C@]74C (stereo partly specified)	0.981
C=C1C(=O)[C@]23[C@H](O)[C@H]1CC[C@H]2[C@@]12CO[C@]3(O)[C@H](O)[C@@H]1C(C)(C)CC[C@@H]2O	0.995
C=CCS(=O)C[C@H](N)C(=O)O (stereo partly specified)	0.984
CC(C)(S)[C@@H](N)C(=O)O	0.993

---

METHOD_DESCRIPTION: chemical genetic growth profiling, strain panel (AID 1159580)
MEASUREMENT_CONDITIONS: S. cerevisiae deletion strains, growth OD, locus YLR221C, strain rsa3, hits give low values
The whole screen tested about 5,500 compounds, of which about 2,000 (36%) were called active. About 18% were inconclusive and are not listed. The list shows a part of the results.

COMPOUND	normalized growth
Clc1ccccc1CN1CCc2sccc2C1	0.983
CC(C)/C(O)=C1/C(=O)O[C@@H](c2ccoc2)[C@]2(C)C(O)[C@@H](O)[C@@]34OC5(C)OC67CC(C)(C(O)[C@]6(O)[C@@H](O)[C@]3(O5)C12)[C@H](CC(=O)O)[C@]74C (some centres not stated)	1.05
Cc1cccc(C)c1NC(=O)C1CCCCN1C (configuration not stated)	0.996
NCCCNCCSP(=O)(O)O	0.952
O=C(O)C1CCCNC1 (configuration not stated)	1.01
Clc1ccc(C(c2ccccc2Cl)C(Cl)Cl)cc1 (configuration not stated)	0.927
COc1ccc(-c2oc3cc(OC)c(OC)c(OC)c3c(=O)c2OC)cc1OC	1.01
NC1(C(=O)O)CC1	1
C=CCS(=O)C[C@H](N)C(=O)O (some centres not stated)	1
O=c1cccc2n1CC1CC2CN2CCCC[C@@H]12 (some centres not stated)	1
NC1(C(=O)O)CCCC1	0.994
COC(=O)[C@H](c1ccccc1Cl)N1CCc2sccc2C1	0.992

---

METHOD_DESCRIPTION: chemical genetic growth profiling, strain panel (AID 1159580);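 also: tested at 20 µM; growth read once vehicle control cultures reached saturation at 30 °C; 1 = growth at the plate median or of vehicle wells; lower values mean less growth of the strain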
MEASUREMENT_CONDITIONS: S. cerevisiae deletion strains, growth OD, locus YLR342W, strain FKS1, hits give low values
The whole screen tested about 5,500 compounds, of which about 2,000 (36%) were called active. Inconclusive results (about 18%) are left out. Some of the results follow.
Threshold 0.9: normalized growth strictly smaller gives Criterion met, otherwise Criterion not met.

MOLECULE	ASSIGNED_CLASS
Cc1oncc1C(=O)Nc1ccc(C(F)(F)F)cc1	Criterion not met
CC1CCC(NC(=O)N(CCCl)N=O)CC1 (stereo not given)	Criterion met
C[C@@H]1CC[C@H]2C(C)(C)C3CC12CC[C@@]3(C)O (stereo not given in full)	Criterion met
C=C[C@@]1(C)CC(=O)[C@@]2(O)[C@](C)(O1)[C@@H](OC(C)=O)[C@@H](O)C1C(C)(C)CC[C@H](O)[C@@]12C (stereo not given in full)	Criterion not met

---

METHOD_DESCRIPTION: chemical genetic growth profiling, strain panel (AID 1159580);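 also: tested at 20 µM; growth read once vehicle control cultures reached saturation at 30 °C; 1 = growth at the plate median or of vehicle wells; lower values mean less growth of the strain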
MEASUREMENT_CONDITIONS: S. cerevisiae deletion strains, growth OD, locus YLR039C, strain RIC1
Screen size: about 5,500 compounds; about 2,000 (36%) were called active. Not shown: some 18% with an inconclusive outcome. No stated cut-off is given here; in the data, active means normalized growth mostly below about 0.91 (no sharp cut-off); inconclusive means no clear call, values can overlap the other calls; inactive means mostly above about 0.92. The list shows a part of the results. Where a SMILES comes first, the peptide text is derived from it.
Classes used: True (active), False (inactive)

COMPOUND	ASSIGNED_CLASS
Cc1cc(Cl)ccc1Oc1ccc(N)cn1	True
O=S(=O)(NCC1CC1)c1ccc(F)c(Cl)c1	False
C[C@]12C=CC(=O)C=C1CCC1C2[C@@H](O)C[C@@]2(C)C1CC[C@]2(O)C(=O)CO (some centres undefined)	False
NC(N)=NCCCCN=C(N)N	False
NC(N)=NCCN1CCCCCCC1	False
C1N2CN3CN1CN(C2)C3	False
CC(=O)OCC(=O)[C@@]1(O)CCC2C3CCC4=CC(=O)C=CC4(C)C3[C@@H](O)C[C@@]21C (some centres undefined)	False
CC(=O)N[C@@H](CC(=O)O)C(=O)N[C@@H](CCC(=O)O)C(=O)O (Ac-Asp-Glu-OH)	False
CC(=O)NC(CCC(=O)O)C(=O)O (centres undefined)	False
O=S(=O)(NCc1ccc2c(c1)OCO2)c1ccc(F)c(Cl)c1	True
CC1CCC(NC(=O)N(CCCl)N=O)CC1 (centres undefined)	False
CC1OC(O[C@H]2/C=C/C=C/C=C/C=C/C=C/C=C/C=C/[C@H](C)[C@@H](O)[C@@H](C)[C@H](C)OC(=O)CC(O)CC(O)CCC(O)C(O)CC(O)C[C@]3(O)C[C@H](O)C(C(=O)O)C(C2)O3)C(O)[C@H](N)C1O (some centres undefined)	False
O=c1cccc2n1CC1CC2CN2CCCC[C@@H]12 (some centres undefined)	False
CC1[C@H](C)OC(=O)CC(O)CC(O)CC(O)CCC(O)C(O)C[C@]2(O)CC(O)C(C(=O)O)C(CC(OC3O[C@H](C)[C@@H](O)[C@H](N)[C@@H]3O)/C=C/C=C/C=C/C=C/CC/C=C/C=C/[C@H](C)[C@H]1O)O2 (some centres undefined)	True
c1ccc2c(CC3=NCCN3)cccc2c1	False
CNc1ccc(C(=O)CC(O)CCC(C)C2OC(=O)CC(O)CC(=O)CC(O)CC(O)CC(O)CC(O)CC3(O)CC(O)C(C(=O)OC)C(CC(OC4OC(C)C(O)C(N)C4O)/C=C/C=C/C=C/C=C/C=C/C=C/C=C/C2C)O3)cc1 (centres undefined)	True
Cc1c(C)c(C)c(CSc2nc3ccccc3[nH]2)c(C)c1C	False
CC(=O)N[C@@H](CCC(=O)O)C(=O)O	False
Fc1ccc([C@@H]2CCNC[C@H]2COc2ccc3c(c2)OCO3)cc1	False

---

METHOD_DESCRIPTION: chemical genetic growth profiling, strain panel (AID 1159580);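 also: tested at 20 µM; growth read once vehicle control cultures reached saturation at 30 °C; 1 = growth at the plate median or of vehicle wells; lower values mean less growth of the strain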
MEASUREMENT_CONDITIONS: S. cerevisiae deletion strains, growth OD, locus YMR263W, strain SAP30, hits give low values
About 2,000 (36%) of roughly 5,500 compounds were called active. Not shown: some 18% with an inconclusive outcome. This is one part of the list.

COMPOUND	normalized growth
Cc1nn(Cc2ccccc2Cl)c(=N)s1	1
CCOC(=O)C(c1ccccc1)C(Nc1ccc(Cl)c(Cl)c1)c1ccccn1 (configuration not stated)	0.985
NCCCC(=O)O	1.01
CCOC(=O)CNc1ccc(Cl)c(Cl)c1	0.946
Clc1ccc(COC(Cn2ccnc2)c2ccc(Cl)cc2Cl)c(Cl)c1 (configuration not stated)	0.062
NCCCCC(=O)O	1.03
COC1C=CC23c4cc5c(cc4CN(CC2O)[C@@H]3C1)OCO5 (some centres not stated)	1.03
CCOC(=O)c1ccc(Oc2ccc(Cl)cc2Cl)c([N+](=O)[O-])c1	0.996
CC(=O)OCC(=O)[C@@]1(O)CCC2C3CCC4=CC(=O)C=CC4(C)C3[C@@H](O)C[C@@]21C (some centres not stated)	1
O=S(=O)(c1ccc(Cl)cc1)c1cc(C(F)(F)F)cc(C(F)(F)F)c1	1
FC(F)(F)c1cc(Cl)c2nsnc2c1	1
CCCCCCCCCCC/C=C\C(C)(C)/C=C\CCCC(=O)O	1.03
